target: human ERβ (Homo sapiens)
Sequence (Q92731 whole entry): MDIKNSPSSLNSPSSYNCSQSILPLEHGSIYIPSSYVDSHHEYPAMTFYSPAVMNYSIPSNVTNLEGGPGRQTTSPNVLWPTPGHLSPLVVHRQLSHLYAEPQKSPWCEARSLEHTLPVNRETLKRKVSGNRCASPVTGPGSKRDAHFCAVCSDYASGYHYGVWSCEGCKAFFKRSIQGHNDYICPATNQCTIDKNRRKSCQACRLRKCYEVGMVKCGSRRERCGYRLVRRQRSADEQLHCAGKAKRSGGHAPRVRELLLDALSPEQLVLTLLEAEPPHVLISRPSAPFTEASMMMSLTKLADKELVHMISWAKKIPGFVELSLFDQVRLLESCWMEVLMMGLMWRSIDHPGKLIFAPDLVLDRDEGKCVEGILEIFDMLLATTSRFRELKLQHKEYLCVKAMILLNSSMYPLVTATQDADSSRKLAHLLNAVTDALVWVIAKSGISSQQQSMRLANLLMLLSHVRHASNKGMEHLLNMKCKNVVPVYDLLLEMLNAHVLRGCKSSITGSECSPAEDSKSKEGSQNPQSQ
measurement.kind: Ki

IN: Write Ki of O=C1C[C@@H](c2ccc(O)cc2)Oc2cc(O)cc(O)c21 [NCI-34875, Naringenin] ; system used: human ERβ (Homo sapiens)
OUT: 3.1 µM
